tgt: Human ASK1 (Homo sapiens, UniProt Q99683)
Construct: expressed in transfected cells; host or cells: HEK293T-AP1
Sequence (Q99683 whole entry): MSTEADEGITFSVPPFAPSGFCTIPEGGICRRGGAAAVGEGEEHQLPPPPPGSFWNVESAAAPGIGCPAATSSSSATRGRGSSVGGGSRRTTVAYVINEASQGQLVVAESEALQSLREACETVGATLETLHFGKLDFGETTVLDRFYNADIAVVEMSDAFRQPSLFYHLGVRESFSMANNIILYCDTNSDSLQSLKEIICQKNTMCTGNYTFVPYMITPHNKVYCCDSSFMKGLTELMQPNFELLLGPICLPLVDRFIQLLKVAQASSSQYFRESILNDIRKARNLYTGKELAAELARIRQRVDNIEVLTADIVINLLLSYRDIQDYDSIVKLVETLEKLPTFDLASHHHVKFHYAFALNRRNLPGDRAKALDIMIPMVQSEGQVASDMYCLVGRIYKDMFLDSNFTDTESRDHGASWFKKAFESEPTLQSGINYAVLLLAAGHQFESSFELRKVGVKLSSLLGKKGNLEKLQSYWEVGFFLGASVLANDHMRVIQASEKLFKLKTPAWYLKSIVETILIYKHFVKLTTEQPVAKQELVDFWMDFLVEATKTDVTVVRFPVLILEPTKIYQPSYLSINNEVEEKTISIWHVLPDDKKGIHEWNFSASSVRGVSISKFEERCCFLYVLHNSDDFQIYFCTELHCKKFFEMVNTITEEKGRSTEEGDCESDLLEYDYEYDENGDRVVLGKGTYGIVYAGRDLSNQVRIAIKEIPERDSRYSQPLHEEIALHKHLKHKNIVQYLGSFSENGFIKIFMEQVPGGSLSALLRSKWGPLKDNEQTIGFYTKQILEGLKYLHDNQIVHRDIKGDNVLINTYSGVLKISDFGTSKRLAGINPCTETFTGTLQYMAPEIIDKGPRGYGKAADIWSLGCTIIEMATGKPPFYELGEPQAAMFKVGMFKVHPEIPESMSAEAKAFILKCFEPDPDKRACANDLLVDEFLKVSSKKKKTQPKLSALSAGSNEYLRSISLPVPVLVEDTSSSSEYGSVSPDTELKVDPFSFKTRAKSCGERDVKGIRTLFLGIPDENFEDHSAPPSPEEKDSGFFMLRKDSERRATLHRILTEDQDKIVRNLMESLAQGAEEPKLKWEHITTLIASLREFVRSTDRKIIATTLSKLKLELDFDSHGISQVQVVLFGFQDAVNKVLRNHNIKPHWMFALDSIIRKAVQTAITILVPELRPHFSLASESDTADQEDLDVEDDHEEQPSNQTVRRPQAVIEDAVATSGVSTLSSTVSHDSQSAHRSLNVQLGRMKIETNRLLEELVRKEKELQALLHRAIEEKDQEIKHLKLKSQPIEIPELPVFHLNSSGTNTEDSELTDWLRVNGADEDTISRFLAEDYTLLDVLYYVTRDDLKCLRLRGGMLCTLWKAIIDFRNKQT
experiment-summary: ASK1 Cell Based Assay (phospho p38 read out in hASK1 transfected HEK293T-AP1 cells)
test-context: HEK293T-AP1 cells, 1 mM hydrogen peroxide, phospho p38; read-out: Cell Based Assay IC50
pIC50: −log10 of the molar value.
experimental-endpoint: pIC50

CC(C)n1cnnc1-c1cccc(N2CCN(c3ccc(S(N)(=O)=O)cc3)C2=O)n1 [Example 1020]	< 5.00
CNC(=O)C1CCN(Cc2ccc(N3CCN(c4cccc(-c5nncn5C(C)C)n4)C3=O)cc2)CC1	< 6.00

Asked: Report pIC50 from Human ASK1 (Homo sapiens, UniProt Q99683) testing of CC(C)n1cnnc1-c1cccc(N2CCN(c3ccc(N(C)C)cc3)C2=O)n1
Given back: < 6.00

Asked: Report pIC50 from Human ASK1 (Homo sapiens, UniProt Q99683) testing of CC(C)C(C#N)C1CN(c2ccc(N3CCN(c4cccc(-c5nncn5C(C)C)n4)C3=O)cc2)C1 (centres unmarked)
Given back: < 6.00

Asked: Report pIC50 from Human ASK1 (Homo sapiens, UniProt Q99683) testing of CC(C)n1cnnc1-c1cccc(N2CCN(c3ccc(C(=O)C4CC4)cc3)C2=O)n1
Given back: > 6.00

Asked: Report pIC50 from Human ASK1 (Homo sapiens, UniProt Q99683) testing of CNC(=O)c1ccc(N2CCN(c3cccc(-c4nncn4C(C)C)n3)C2=O)cn1
Given back: < 6.00

Asked: Report pIC50 from Human ASK1 (Homo sapiens, UniProt Q99683) testing of CC(C)n1cnnc1-c1cccc(N2CCN(c3ccc(N4CC(NC5CC5)C4)cc3)C2=O)n1
Given back: < 6.00

Asked: Report pIC50 from Human ASK1 (Homo sapiens, UniProt Q99683) testing of CC(C)n1cnnc1-c1cccc(N2CCN(c3cnc(N4CCOCC4)nc3)C2=O)n1
Given back: < 7.00
